- Tested on: Rattus norvegicus
- experiment-description: The mean increase in paw volume was compared between drug treated groups and placebo to calculate the percent inhibition in rats at 0.08 mmol/kg by carrageenan Edema Assay; 30-39
- Format: functional
quantity-kind: inhibition in vivo at 80 µmol/kg (%)

[
  {
    "compound": "CN(C)CCCNCCc1cccc(C(=O)c2ccccc2)c1",
    "output-unit": "%",
    "observed": 30
  },
  {
    "compound": "CC(CN1CCCCC1)c1cccc(C(=O)c2ccccc2)c1 (stereo not given)",
    "output-unit": "%",
    "observed": 30
  },
  {
    "compound": "CC(CN1CCCCC1C1CCCCC1)c1cccc(C(=O)c2ccccc2)c1 (stereo not given)",
    "output-unit": "%",
    "observed": 30
  },
  {
    "compound": "CC(CN1CCCCC1CCC1CCCCC1)c1cccc(C(=O)c2ccccc2)c1 (stereo not given)",
    "output-unit": "%",
    "observed": 30
  },
  {
    "compound": "CC(CN1CCCCC1CCCC1CCCCC1)c1cccc(C(=O)c2ccccc2)c1 (stereo not given)",
    "output-unit": "%",
    "observed": 30
  }
]
